// provenance: ChEMBL document CHEMBL3352485

# measurement.protocol: Bioavailability in Sprague-Dawley rat at 1 mg/kg, sc after 24 hrs by LC-MS/MS analysis
# Assay type: ADME, organism-based
# run.conditions: in vivo
Where a SMILES comes first, the peptide text is derived from it. [ ]: non-standard residue; d: D form. Arg(Me) = CNC(=N)NCCC[C@H](N)C(=O)O; azaGly = NNC(=O)O
Exercise: state measured bioavailability for each of the molecules provided.

*Q* Reported bioavailability for `CNC(=N)NCCC[C@H](NC(=O)[C@H](CC(C)C)NC(=O)NNC(=O)[C@H](Cc1ccccc1)NC(=O)[C@@H](NC(=O)[C@H](CC(N)=O)NC(=O)[C@@H](Cc1c[nH]c2ccccc12)NC(=O)[C@H](N)Cc1ccc(O)cc1)[C@@H](C)O)C(=O)N[C@@H](Cc1c[nH]c2ccccc12)C(N)=O` : what is it?
*A* 9.2%

*Q* Entry `CNC(=N)NCCC[C@H](NC(=O)[C@H](CC(C)C)NC(=O)NNC(=O)[C@H](Cc1ccccc1)NC(=O)[C@@H](NC(=O)[C@H](CC(N)=O)NC(=O)[C@@H](Cc1ccncc1)NC(=O)[C@@H](Cc1ccc(O)cc1)NC(C)=O)[C@@H](C)O)C(=O)N[C@@H](Cc1c[nH]c2ccccc12)C(N)=O` : reported bioavailability = ?
*A* 12.1%

*Q* Which bioavailability value belongs to `CNC(=N)NCCC[C@H](NC(=O)[C@H](CC(C)C)NC(=O)NNC(=O)[C@H](Cc1ccccc1)NC(=O)[C@@H](NC(=O)[C@H](CC(N)=O)NC(=O)[C@@H](Cc1c[nH]c2ccccc12)NC(=O)[C@@H](Cc1ccc(O)cc1)NC(C)=O)[C@@H](C)O)C(=O)N[C@@H](Cc1ccccc1)C(N)=O` ?
*A* 28.9%

*Q* Query: bioavailability; subject: CNC(=N)NCCC[C@H](NC(=O)[C@H](CC(C)C)NC(=O)NNC(=O)[C@H](Cc1ccccc1)NC(=O)[C@@H](NC(=O)[C@H](CC(N)=O)NC(=O)[C@@H](Cc1c[nH]c2ccccc12)NC(=O)[C@@H](Cc1ccc(O)cc1)NC(C)=O)[C@@H](C)O)C(=O)N[C@@H](Cc1c[nH]c2ccccc12)C(N)=O (Ac-[dY][dW]NTF[azaGly]L[Arg(Me)]W-NH2)
*A* 9.4%
